Origin of the recorded values: BigSolDB 2.1

- details: in cyclohexanone, 293.15 K
propertyMeasured: solubility (mole fraction)

1. O=[N+]([O-])c1ccc(S(=O)(=O)[O-])cc1.[Na+]    0.000917

* * *

- details: in ethanol, 283.15 K
propertyMeasured: solubility (mole fraction)

1) O=[N+]([O-])c1ccc(S(=O)(=O)[O-])cc1.[Na+]    0.00104

* * *

- details: in n-butanol, 323.15 K
propertyMeasured: solubility (mole fraction)

1) O=[N+]([O-])c1ccc(S(=O)(=O)[O-])cc1.[Na+]    0.00131

* * *

- details: in acetone, 293.15 K
propertyMeasured: solubility (mole fraction)

1. O=[N+]([O-])c1ccc(S(=O)(=O)[O-])cc1.[Na+]    0.0161
